Just for reference, patent US4721775A is where these values come from.

# LH % change per entry
Tested on: release of LH
Assay: Release of LH in rats after sc injection
Assay type: in vivo
Conditions: 60 min. after sc injection, 3000 ng, LHRH = 100
Non-standard residues stand in square brackets, D forms with d. Residues, ends and D or L forms follow the SMILES beside them. pGlu = O=C1CC[C@@H](C(=O)O)N1
Respond with the bare value in %.

compound: NC(=O)CC[C@H](NC(=O)[C@H](Cc1c[nH]c2ccccc12)NC(=O)CNC(=O)[C@H](Cc1ccc(O)cc1)NC(=O)[C@H](CO)NC(=O)[C@H](Cc1c[nH]c2ccccc12)NC(=O)[C@H](Cc1c[nH]cn1)NC(=O)[C@@H]1CCC(=O)N1)C(=O)N1CCC[C@H]1C(=O)NCC(N)=O [[Trp^7 Gln^8]--LHRH] ([pGlu]HWSYGWQPG-NH2)
assayed-system: release of LH
LH % change, %: 9.1

compound: CC(C)C[C@H](NC(=O)[C@H](Cc1c[nH]c2ccccc12)NC(=O)CNC(=O)[C@H](Cc1ccc(O)cc1)NC(=O)[C@H](CO)NC(=O)[C@H](Cc1c[nH]c2ccccc12)NC(=O)[C@H](Cc1c[nH]cn1)NC(=O)[C@@H]1CCC(=O)N1)C(=O)N1CCC[C@H]1C(=O)NCC(N)=O [[Trp^7 Leu^8]--LHRH, reference compound] ([pGlu]HWSYGWLPG-NH2)
assayed-system: release of LH
LH % change, %: 3.0

Below: the item to evaluate.
Prompt: I am curious: what LH % change value has been reported for CC(C)C[C@H](NC(=O)CNC(=O)[C@H](Cc1c[nH]cn1)NC(=O)[C@H](CO)NC(=O)[C@H](Cc1c[nH]c2ccccc12)NC(=O)[C@H](Cc1c[nH]cn1)NC(=O)[C@@H]1CCC(=O)N1)C(=O)N[C@@H](Cc1ccc(O)cc1)C(=O)N1CCC[C@H]1C(=O)NCC(N)=O [[His^5 Tyr^8]--LHRH] ([pGlu]HWSHGLYPG-NH2) ?
Completion: 3.4

====

# FSH % change per entry
System: release of FSH
Experiment: Release of FSH in rats after sc injection
Assay type: in vivo
Conditions: 60 min. after sc injection, 300 ng, LHRH = 100
Non-standard residues stand in square brackets, D forms with d. Residues, ends and D or L forms follow the SMILES beside them. pGlu = O=C1CC[C@@H](C(=O)O)N1
Respond with the bare value in %.

compound: CC(C)C[C@H](NC(=O)CNC(=O)[C@H](Cc1ccc(O)cc1)NC(=O)[C@H](CO)NC(=O)[C@H](Cc1c[nH]c2ccccc12)NC(=O)[C@H](Cc1c[nH]cn1)NC(=O)[C@@H]1CCC(=O)N1)C(=O)N[C@@H](CCCNC(=N)N)C(=O)N1CCC[C@H]1C(=O)NCC(N)=O [LHRH, reference compound]
result-units: %
FSH % change: 100
//
compound: CC(C)C[C@H](NC(=O)CNC(=O)[C@H](Cc1ccc(O)cc1)NC(=O)[C@H](CO)NC(=O)[C@H](Cc1c[nH]c2ccccc12)NC(=O)[C@H](Cc1c[nH]cn1)NC(=O)[C@@H]1CCC(=O)N1)C(=O)N[C@@H](Cc1ccc(O)cc1)C(=O)N1CCC[C@H]1C(=O)NCC(N)=O [[Tyr^8]--LHRH]
result-units: %
FSH % change: 48

Prompt: I am curious: what FSH % change value has been reported for CC(C)C[C@H](NC(=O)[C@H](Cc1c[nH]c2ccccc12)NC(=O)CNC(=O)[C@H](Cc1c[nH]cn1)NC(=O)[C@H](CO)NC(=O)[C@H](Cc1c[nH]c2ccccc12)NC(=O)[C@H](Cc1c[nH]cn1)NC(=O)[C@@H]1CCC(=O)N1)C(=O)N1CCC[C@H]1C(=O)NCC(N)=O [[His^5 Trp^7 Leu^8]--LHRH] ([pGlu]HWSHGWLPG-NH2) ?
Completion: 62

Prompt: Let us now turn to CC(C)C[C@H](NC(=O)CNC(=O)[C@H](Cc1c[nH]cn1)NC(=O)[C@H](CO)NC(=O)[C@H](Cc1c[nH]c2ccccc12)NC(=O)[C@H](Cc1c[nH]cn1)NC(=O)[C@@H]1CCC(=O)N1)C(=O)N[C@@H](CCC(N)=O)C(=O)N1CCC[C@H]1C(=O)NCC(N)=O [[His^5 Gln^8]--LHRH] ([pGlu]HWSHGLQPG-NH2)
Completion: 48

Prompt: Let us now turn to NC(=O)CC[C@H](NC(=O)[C@H](Cc1c[nH]c2ccccc12)NC(=O)CNC(=O)[C@H](Cc1ccc(O)cc1)NC(=O)[C@H](CO)NC(=O)[C@H](Cc1c[nH]c2ccccc12)NC(=O)[C@H](Cc1c[nH]cn1)NC(=O)[C@@H]1CCC(=O)N1)C(=O)N1CCC[C@H]1C(=O)NCC(N)=O [[Trp^7 Gln^8]--LHRH] ([pGlu]HWSYGWQPG-NH2)
Completion: 58

Prompt: Let us now turn to NC(=O)CNC(=O)[C@@H]1CCCN1C(=O)[C@H](Cc1ccc(O)cc1)NC(=O)[C@H](Cc1c[nH]c2ccccc12)NC(=O)CNC(=O)[C@H](Cc1c[nH]cn1)NC(=O)[C@H](CO)NC(=O)[C@H](Cc1c[nH]c2ccccc12)NC(=O)[C@H](Cc1c[nH]cn1)NC(=O)[C@@H]1CCC(=O)N1 [[His^5 Trp^7 Tyr^8] (Chicken II), reference compound] ([pGlu]HWSHGWYPG-NH2)
Completion: 58

====

Test system: release of LH
Assay: Release of LH in rats after sc injection
Format: in vivo
Settings: release 60 min. after sc injection, dosage of peptide 300 ng
Non-standard residues stand in square brackets, D forms with d. Residues, ends and D or L forms follow the SMILES beside them. pGlu = O=C1CC[C@@H](C(=O)O)N1
property-name: LH (ng/mL)
Respond with the bare value in ng/mL.

Example entries and their recorded answers appear below.
compound: NC(=O)CC[C@H](NC(=O)[C@H](Cc1c[nH]c2ccccc12)NC(=O)CNC(=O)[C@H](Cc1ccc(O)cc1)NC(=O)[C@H](CO)NC(=O)[C@H](Cc1c[nH]c2ccccc12)NC(=O)[C@H](Cc1c[nH]cn1)NC(=O)[C@@H]1CCC(=O)N1)C(=O)N1CCC[C@H]1C(=O)NCC(N)=O [[Trp^7 Gln^8]--LHRH] ([pGlu]HWSYGWQPG-NH2)
assayed-system: release of LH
property-name: LH
measured-number: 3.2
--
compound: NC(=O)CC[C@H](NC(=O)[C@H](Cc1c[nH]c2ccccc12)NC(=O)CNC(=O)[C@H](Cc1c[nH]cn1)NC(=O)[C@H](CO)NC(=O)[C@H](Cc1c[nH]c2ccccc12)NC(=O)[C@H](Cc1c[nH]cn1)NC(=O)[C@@H]1CCC(=O)N1)C(=O)N1CCC[C@H]1C(=O)NCC(N)=O [[His^5 Trp^7 Gln^8]--LHRH] ([pGlu]HWSHGWQPG-NH2)
assayed-system: release of LH
property-name: LH
measured-number: 5

Below: the item to evaluate.
Prompt: Observed LH on release of LH for CC(C)C[C@H](NC(=O)CNC(=O)[C@H](Cc1ccc(O)cc1)NC(=O)[C@H](CO)NC(=O)[C@H](Cc1c[nH]c2ccccc12)NC(=O)[C@H](Cc1c[nH]cn1)NC(=O)[C@@H]1CCC(=O)N1)C(=O)N[C@@H](Cc1ccc(O)cc1)C(=O)N1CCC[C@H]1C(=O)NCC(N)=O [[Tyr^8]--LHRH] , please.
Completion: 2.5

====

# LH per entry
Test system: release of LH
Assay: Release of LH in rats after sc injection
Type: in vivo
Details: release 60 min. after sc injection, dosage of peptide 3000 ng
From the text: The data on the release of LH and FSH in rats by modifications of LHRH with one structural change are in Table II. Exclusive of the salmon-LHRH, only one of the six decapeptides with two structural changes had significant activity.
Non-standard residues stand in square brackets, D forms with d. Residues, ends and D or L forms follow the SMILES beside them. pGlu = O=C1CC[C@@H](C(=O)O)N1
# output: numeric value plus its unit

Example entries and their recorded answers appear below.
compound: NC(=O)CNC(=O)[C@@H]1CCCN1C(=O)[C@H](Cc1ccc(O)cc1)NC(=O)[C@H](Cc1c[nH]c2ccccc12)NC(=O)CNC(=O)[C@H](Cc1ccc(O)cc1)NC(=O)[C@H](CO)NC(=O)[C@H](Cc1c[nH]c2ccccc12)NC(=O)[C@H](Cc1c[nH]cn1)NC(=O)[C@@H]1CCC(=O)N1 [[Trp^7 Tyr^8]--LHRH] ([pGlu]HWSYGWYPG-NH2)
property-name: LH
result: 3.8 ng/mL
//
compound: CC(C)C[C@H](NC(=O)CNC(=O)[C@H](Cc1ccc(O)cc1)NC(=O)[C@H](CO)NC(=O)[C@H](Cc1c[nH]c2ccccc12)NC(=O)[C@H](Cc1c[nH]cn1)NC(=O)[C@@H]1CCC(=O)N1)C(=O)N[C@@H](Cc1ccc(O)cc1)C(=O)N1CCC[C@H]1C(=O)NCC(N)=O [[Tyr^8]--LHRH]
property-name: LH
result: 2.7 ng/mL
//
compound: CC(C)C[C@H](NC(=O)CNC(=O)[C@H](Cc1c[nH]cn1)NC(=O)[C@H](CO)NC(=O)[C@H](Cc1c[nH]c2ccccc12)NC(=O)[C@H](Cc1c[nH]cn1)NC(=O)[C@@H]1CCC(=O)N1)C(=O)N[C@@H](CCC(N)=O)C(=O)N1CCC[C@H]1C(=O)NCC(N)=O [[His^5 Gln^8]--LHRH] ([pGlu]HWSHGLQPG-NH2)
property-name: LH
result: 6.8 ng/mL

Below: the item to evaluate.
Prompt: I am curious: what LH value has been reported for CC(C)C[C@H](NC(=O)[C@H](Cc1c[nH]c2ccccc12)NC(=O)CNC(=O)[C@H](Cc1ccc(O)cc1)NC(=O)[C@H](CO)NC(=O)[C@H](Cc1c[nH]c2ccccc12)NC(=O)[C@H](Cc1c[nH]cn1)NC(=O)[C@@H]1CCC(=O)N1)C(=O)N1CCC[C@H]1C(=O)NCC(N)=O [[Trp^7 Leu^8]--LHRH, reference compound] ([pGlu]HWSYGWLPG-NH2) ?
Completion: 2.5 ng/mL
